Tested on: TK-10 renal
MEASUREMENT_DESCRIPTION: NCI-60 one-dose screen, 48 h
EXPERIMENTAL_CONDITIONS: 10 µM
Compounds without any hit were thinned out: in the full panel of roughly 83,000, 20% have a hit. Calls of active or inactive are those of the source. Rule for the calls: active = growth percent below 10; inactive = the rest.
Respond only with the outcome that fits, drawn from active, inactive

1. CCc1ccc(-c2nnc(COc3ccc(-c4nc5ccc(C)cc5[nH]4)cc3OC)o2)cc1 ... inactive
2. O=C(COCc1c(-c2ccccc2)no[n+]1[O-])Nc1nc(-c2ccc(Cl)cc2)cs1 ... inactive
3. Cc1ccc2nc3[nH]c(=O)[nH]c(=O)c3c(N)c2c1 ... inactive
4. COc1ccc2oc(=O)cc(C3c4ccc([nH]4)C(c4cc(=O)oc5ccc(OC)cc45)c4ccc([nH]4)C(c4cc(=O)oc5ccc(OC)cc45)c4ccc([nH]4)C(c4cc(=O)oc5ccc(OC)cc45)c4ccc3[nH]4)c2c1 (stereo not drawn) ... active
5. CNC(=O)c1cc(Oc2ccc(NC(=O)Nc3ccc(Cl)c(OC4CCCCC4)c3)c(F)c2)ccn1 ... inactive

Q: Which outcome was assigned to O=NN(CC(=O)N/N=C/C=C\c1ccccc1)CC(=O)N/N=C/C=C/c1ccccc1 in this test?
A: inactive

Q: Which outcome was assigned to N#CN1CC[C@H](C(=O)Nc2ncc(-c3ccccc3)s2)C1 in this test?
A: active

Q: Which outcome was assigned to COc1ccc(N2CCN(c3nc(-c4ccccc4)c(C#N)c(=O)[nH]3)CC2)cc1 in this test?
A: inactive
